Biological target: HLA-A*02:01
Assay: IEDB peptide-MHC binding, purified MHC/competitive/fluorescence; bounds were set here for any values at or beyond the usual limits of such assays
Details: source organism: Homo sapiens
pIC50: −log10 of the molar value.
Consider the following sequences and their measured pIC50 readings.

| Polymer Sequence | Readout Value |
| --- | --- |
| DPAAAFVNQ | ≤ 4.00 |

// below: pIC50 requested for another sequence
Problem: Could you share what pIC50 was measured for PLALEGSLQK , tested on HLA-A*02:01?
Result: ≤ 4.00

----------
Molecular target: HLA-A*02:01
Assay: IEDB peptide-MHC binding, purified MHC/competitive/fluorescence; bounds were set here for any values at or beyond the usual limits of such assays
Details: source organism: Homo sapiens
Test Readout: IC50

Problem: Query: IC50; subject: LALEGSLQK
Result: ≥ 100 µM

Problem: Entry to check: VEQCCTSICS
Result: ≥ 100 µM

Problem: Also TSICSLYQLE ?
Result: ≥ 100 µM

Problem: Likewise for AAAFVNQHL ?
Result: 5.02 µM

Problem: Same thing, different sequence: AEDLQVGQV
Result: ≥ 100 µM

Problem: Then what about the sequence PAAAFVNQHL ?
Result: ≥ 100 µM

Problem: Now consider LQPLALEGS and answer again.
Result: ≥ 100 µM

Problem: Another: SICSLYQLE
Result: ≥ 100 µM

Problem: Next sequence up: PLLALLALWG
Result: 43.5 µM

Problem: Next up: LLALLALWG
Result: ≥ 100 µM

Problem: QVGQVELGGG ?
Result: ≥ 100 µM

Problem: Now this one: DLQVGQVEL
Result: ≥ 100 µM

Problem: How about this sequence: CTSICSLYQL
Result: ≥ 97.7 µM

Problem: Same again, this time with LLPLLALLA
Result: 1.37 µM

Problem: Another sequence: LLALWGPDPA
Result: 1.96 µM

Problem: Okay, and GGGPGAGSL ?
Result: ≥ 100 µM

Problem: Another sequence to check: LALLALWGP
Result: ≥ 100 µM

Problem: Try this sequence too: SLYQLENYCN
Result: ≥ 100 µM
